This collection of values is drawn from patent US20240409645A1.

Biological target: T1, human IL-2Rγ (common cytokine receptor γ-chain) (human, UniProt P31785 23-262, limits assumed)
T1 construct: Recombinant protein coated on the plate or immobilised on a CM5 chip; also called hu IL-2R; CD132
T1 sequence: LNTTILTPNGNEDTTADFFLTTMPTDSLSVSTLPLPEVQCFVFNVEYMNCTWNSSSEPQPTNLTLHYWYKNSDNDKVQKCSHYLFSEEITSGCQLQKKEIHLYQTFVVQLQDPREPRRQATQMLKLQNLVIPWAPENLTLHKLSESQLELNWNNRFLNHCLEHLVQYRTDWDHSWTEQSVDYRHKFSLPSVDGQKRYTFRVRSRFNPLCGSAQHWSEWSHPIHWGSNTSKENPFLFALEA
Experiment: PE binding ELISA, periplasmic extract on coated protein
measured.metric: OD (PE binding ELISA) (OD450 nm)
State just the number; it will be interpreted in OD450 nm.

These solved cases illustrate the format of a correct answer.
binder="FJ1427_P035MP04F03 (VHH, VHH in periplasmic extract; also called clone nr; 310) VHH: QVQLVESGGGLVQAGGSLRLSCAASGRTLSRNAMGWFRQAPGKEREFVAADSWGGDTFYADSVEGRFTFSRDNAKNAVYLQMNSLQPEDTAVYYCAGAPTSFATTAYSSSNSYRYWGQGTQVTVSS" quantitative_readout=1.77
binder="FJ1427_P035MP04B11 (VHH, VHH in periplasmic extract; also called clone nr; 370) VHH: EVQLVESGGGWVQVGESLRLSCAPSGRTFVSGIMGWFRQAPGKEREFVARIILNNNSTRYIDSVKGRFTISRDSAKNTMYLQMDSLRPEDTAVYYCAARDRYGSGNSLSPSAYDYWGQGTQVTVSS" quantitative_readout=0.75

Alright, here's another binder for you.
Which value of OD (PE binding ELISA) has been reported for FJ1427_P035MP04A02 (VHH, VHH in periplasmic extract; also called clone nr) VHH: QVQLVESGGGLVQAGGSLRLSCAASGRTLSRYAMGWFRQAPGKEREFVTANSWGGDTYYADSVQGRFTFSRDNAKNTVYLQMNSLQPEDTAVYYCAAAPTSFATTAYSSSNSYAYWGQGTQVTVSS in the records?
1.45
